Experiment: Drug uptake in serum of BALB/c mouse at 10 mg/kg, po measured after 15 mins
Assay type: ADME, organism-based
Parameters: dose 10 mg/kg, route oral
Details: read-out: Drug uptake
recorded metric: concentration at 0.25 h (ng/mL)

# compound string, unit info, concentration at 0.25 h
measured = [
    ("O=C(Cc1cc(Cl)c(Nc2nc3ccccc3s2)cc1F)N1C[C@@H](F)C[C@H]1CO[C@H]1CC[C@H](C(=O)O)CC1", "ng/mL", 3320),
]

(a) Cn1cc(-c2nc3ccc(CC(=O)N4C[C@@H](F)C[C@H]4CO[C@H]4CC[C@H](C(=O)O)CC4)cc3o2)c2ccccc21
(b) O=C(Cc1ccc(Nc2nc3cc(F)ccc3s2)c(Cl)c1)N1C[C@@H](F)C[C@H]1CO[C@H]1CC[C@H](C(=O)O)CC1
Parameter check: reported concentration at 0.25 h is higher for which label, a or b ? // return label of chosen record
b
